The reported measurements were obtained from patent US20240254222A1.

# pKd values compiled below
# Assay target: T1, Mouse Semaphorin3A-Sema Domain, TPP-19069 (mouse, UniProt O08665 21-569)
# T1 construct: produced inhouse
# T1 sequence: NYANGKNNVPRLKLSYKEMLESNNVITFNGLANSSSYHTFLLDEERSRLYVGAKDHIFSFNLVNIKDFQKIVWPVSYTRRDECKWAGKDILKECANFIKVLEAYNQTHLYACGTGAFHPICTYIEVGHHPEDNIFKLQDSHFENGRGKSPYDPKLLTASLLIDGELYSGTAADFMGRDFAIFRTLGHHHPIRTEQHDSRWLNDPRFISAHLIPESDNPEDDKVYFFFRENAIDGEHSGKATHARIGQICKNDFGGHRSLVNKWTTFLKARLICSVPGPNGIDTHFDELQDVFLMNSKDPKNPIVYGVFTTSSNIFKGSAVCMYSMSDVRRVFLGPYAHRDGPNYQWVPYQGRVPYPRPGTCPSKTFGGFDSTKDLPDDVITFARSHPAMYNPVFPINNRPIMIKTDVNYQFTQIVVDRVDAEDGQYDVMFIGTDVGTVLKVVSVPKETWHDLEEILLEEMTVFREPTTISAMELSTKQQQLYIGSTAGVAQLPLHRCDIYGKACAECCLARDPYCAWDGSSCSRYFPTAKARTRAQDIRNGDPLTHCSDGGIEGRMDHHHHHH
# Protocol summary: SPR, captured antibody, Sema3A domain analyte
Would you please state pKd, meaning minus log10 of the concentration in mol/L, as a bare number?

[[record]]
binder = "TPP-17755 (antibody, human IgG1, lambda, V domains shown, also called Samsung; Samsung Prior Art F11) VH: EVQLLESGGGLVQTGGSLRLSCAASGFTFSDYAMSWVRQAPGKGLEWVSWIYYDSGSKYYADSVKGRFTISRDNSKNTLYLQMNSLRAEDTAVYYCAKLNGDFDYWGQGTLVTVSS VL: QSVLTQPPSASGTPGQRVTISCSGSSSNIGNNDVSWYQQLPGTAPKLLIYADSHRPSGVPDRFSGSKSGTSASLAISGLRSEDEADYYCGAWDSSLSGYVFGGGTKLTVLG"
measured_parameter = "pKd"
reported_result = 8.41

[[record]]
binder = "TPP-30789 (antibody, human IgG1, kappa, V domains shown, prior art, WO 2020/225400; also called BI clone II; Böhringer (BI) Clone II) VH: EVQLVESGGGLVQPGGSLRLSCAASGFPFSSYYMSWVRQAPGKGLEWVSTIIKSGGYAYYPDSVKDRFTISRDNSKNTLYLQMSSLRAEDTAVYYCVRGGQGAMDYWGQGTTVTVSS VL: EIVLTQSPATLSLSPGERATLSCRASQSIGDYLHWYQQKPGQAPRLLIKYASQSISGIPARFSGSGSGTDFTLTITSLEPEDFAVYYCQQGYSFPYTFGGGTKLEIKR"
measured_parameter = "pKd"
reported_result = 10.38


stdin: // returns reported pKd for input TPP-18533 (antibody, human IgG1, lambda, V domains shown, IgG1) VH: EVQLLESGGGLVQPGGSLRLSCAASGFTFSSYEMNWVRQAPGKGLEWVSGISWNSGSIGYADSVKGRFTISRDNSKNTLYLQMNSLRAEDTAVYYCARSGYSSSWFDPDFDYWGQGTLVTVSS VL: QSVLTQPPSVSGAPGQRVTISCTGSSSNIGAGYDVHWYQQLPGTAPKLLIYGNSNRPSGVPDRFSGSKSGTSASLAITGLQAEDEADYYCSSYAGSNPYVVFGGGTKLTVLG
stdout: 8.09
